Property: pIC50; scope: individual molecules
System Name: BCR fusion to kinase domain of MerTK (Ba/F3-MerTK) (Homo sapiens, UniProt Q12866)
Sequence (Q12866 21-999 limits assumed, change not shown): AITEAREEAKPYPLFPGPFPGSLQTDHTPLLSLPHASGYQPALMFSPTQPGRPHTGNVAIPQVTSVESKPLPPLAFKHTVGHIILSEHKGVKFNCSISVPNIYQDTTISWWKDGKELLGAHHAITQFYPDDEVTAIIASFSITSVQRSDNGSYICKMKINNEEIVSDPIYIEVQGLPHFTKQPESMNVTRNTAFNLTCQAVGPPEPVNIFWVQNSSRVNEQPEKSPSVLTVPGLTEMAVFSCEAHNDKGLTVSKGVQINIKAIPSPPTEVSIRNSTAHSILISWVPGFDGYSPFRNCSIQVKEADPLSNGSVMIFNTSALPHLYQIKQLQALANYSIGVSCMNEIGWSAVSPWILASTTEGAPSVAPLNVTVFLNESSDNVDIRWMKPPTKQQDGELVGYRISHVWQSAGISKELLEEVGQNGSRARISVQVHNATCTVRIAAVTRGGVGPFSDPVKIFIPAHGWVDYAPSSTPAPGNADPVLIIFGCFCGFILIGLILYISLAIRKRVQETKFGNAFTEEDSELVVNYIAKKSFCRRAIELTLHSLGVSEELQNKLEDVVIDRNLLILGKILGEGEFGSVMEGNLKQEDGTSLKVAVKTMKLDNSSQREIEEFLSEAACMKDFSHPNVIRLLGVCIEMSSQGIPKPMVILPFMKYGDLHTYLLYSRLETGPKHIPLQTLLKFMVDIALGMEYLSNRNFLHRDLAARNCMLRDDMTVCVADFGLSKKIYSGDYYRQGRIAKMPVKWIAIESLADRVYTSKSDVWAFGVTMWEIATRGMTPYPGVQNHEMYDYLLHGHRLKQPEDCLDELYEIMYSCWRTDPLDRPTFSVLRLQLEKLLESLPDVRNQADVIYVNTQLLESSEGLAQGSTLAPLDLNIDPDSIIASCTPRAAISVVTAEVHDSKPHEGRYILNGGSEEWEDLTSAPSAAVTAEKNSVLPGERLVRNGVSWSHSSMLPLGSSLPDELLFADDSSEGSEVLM
Experiment: In Cell TAM Kinase Assay Using BaF3 Cellular System
Assay type: cell-based, murine
Measurement Context: Ba/F3 BCR-kinase fusion proliferation, 72 hours, Cell Titer Glo; kinase not given; read-out: IC50
pIC50: −log10 of the molar value.

Solved entries:
>  <Molecule>
CN(c1ccc(-c2ccc(C(=O)N3CC[C@@H](NC(=O)c4cc(-c5cnn(C)c5)cnc4N)C3)cc2)cc1)c1ccc(N)cc1F

>  <pIC50>
< 6.00

$$$$
>  <Molecule>
Cn1cc(-c2cnc(N)c(C(=O)N[C@@H]3CCN(C(=O)c4ccc(-c5ccc(CC6CCN(CCO)CC6)cc5)cc4)C3)c2)cn1

>  <pIC50>
< 6.00

$$$$
>  <Molecule>
Cc1cccc(-c2ccc(C(=O)N3CC[C@@H](NC(=O)c4cc(-c5cnn(C)c5)cnc4N)C3)cc2)c1

>  <pIC50>
> 7.00

$$$$
>  <Molecule>
Cn1cc(-c2cnc(N)c(C(=O)N[C@@H]3CCN(C(=O)OC4CCCC(c5ccccc5)C4)C3)c2)cn1 (some centres unmarked)

>  <pIC50>
6.30 to 7.00

$$$$

Ask: State the recorded pIC50 for this entry: Cn1cc(-c2cnc(N)c(C(=O)N[C@@H]3CCN(C(=O)c4ccc5cc(OCC6CCNCC6)ccc5c4)C3)c2)cn1
Result: < 6.00

Ask: State the recorded pIC50 for this entry: Nc1ncc(-c2ccc(C(=O)NC3CCOCC3)cc2)cc1C(=O)N[C@@H]1CCN(C(=O)c2ccc(-c3ccccc3Cl)cc2)C1
Result: < 6.00

Ask: State the recorded pIC50 for this entry: CN1C(C)(C)CC(Nc2ccc3cc(C(=O)N4CC[C@@H](NC(=O)c5cc(-c6cnn(C)c6)cnc5N)C4)ccc3c2)CC1(C)C
Result: < 6.00

Ask: State the recorded pIC50 for this entry: Nc1ccccc1-c1cnc(N)c(C(=O)N[C@@H]2CCN(C(=O)c3ccc(-c4ccc(F)cc4Cl)cc3)C2)n1
Result: < 6.00

Ask: State the recorded pIC50 for this entry: CN(C)CCCOc1ccc2cc(C(=O)N3CC[C@@H](NC(=O)c4cc(-c5cnn(C)c5)cnc4N)C3)ccc2c1
Result: < 6.00
